Target sequence: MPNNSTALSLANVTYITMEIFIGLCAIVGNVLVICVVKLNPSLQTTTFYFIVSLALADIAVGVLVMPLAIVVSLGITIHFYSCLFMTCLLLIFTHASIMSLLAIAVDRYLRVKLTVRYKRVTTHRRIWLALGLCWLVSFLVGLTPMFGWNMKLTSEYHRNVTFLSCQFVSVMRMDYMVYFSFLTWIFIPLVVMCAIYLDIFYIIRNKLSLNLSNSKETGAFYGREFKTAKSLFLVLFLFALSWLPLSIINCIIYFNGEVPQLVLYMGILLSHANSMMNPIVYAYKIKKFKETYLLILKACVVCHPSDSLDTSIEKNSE
pKi: −log10 of the molar value.
Measured Parameter: pKi

• O=C1C[C@@H](c2ccc(O)cc2)Oc2ccccc21 = 4.64
• CCOc1c(-c2c(C)cc(C)cc2C)oc2ccc(Cl)cc2c1=O = 6.72
• O=c1c(O)c(-c2ccccc2)oc2cc(O)cc(O)c12 = 6.23
• COc1cc(OC)c2c(=O)c(OC)c(-c3cc(OC)c(OC)c(OC)c3)oc2c1 = 5.18
• COC1(OC)Cc2oc(-c3ccc(O)cc3O)c(CC=C(C)C)c(=O)c2C(O)=C1/C=C/C(C)C = 5.34
• O=C1CC(c2ccccc2)Oc2ccccc21 (configuration not stated) [2-phenyl-2,3-dihydro-4H-chromen-4-one] = 4.79
• COc1ccc(-c2cc(=O)c3c(O)cc(C)cc3o2)cc1 = 4.30

---

Target: Adenosine receptor A2a (Rattus norvegicus, UniProt P30543)
Sequence (P30543 whole entry): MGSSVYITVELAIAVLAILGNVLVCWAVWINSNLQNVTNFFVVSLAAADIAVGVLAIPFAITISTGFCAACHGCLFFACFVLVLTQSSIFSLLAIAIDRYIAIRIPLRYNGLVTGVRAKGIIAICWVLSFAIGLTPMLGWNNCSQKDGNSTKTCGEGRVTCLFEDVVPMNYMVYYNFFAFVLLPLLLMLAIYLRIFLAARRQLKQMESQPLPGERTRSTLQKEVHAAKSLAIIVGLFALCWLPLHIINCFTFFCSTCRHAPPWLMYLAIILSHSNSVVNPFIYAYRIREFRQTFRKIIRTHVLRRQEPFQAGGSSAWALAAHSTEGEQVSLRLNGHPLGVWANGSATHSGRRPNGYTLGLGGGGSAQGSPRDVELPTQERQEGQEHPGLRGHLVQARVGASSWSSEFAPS
Assay: Ability to displace [3H]-CGS- 21680 binding from adenosine A2A receptor.
Measured Ki accompanies every entry in the list below.
Measured Parameter: Ki (µM)

* CC(=O)Oc1cc(OC(C)=O)c2c(c1)OC(c1ccccc1)C(OC(C)=O)C2=O (stereo not drawn) | 56.2
* CCOc1ccc(-c2oc3cc(OCC)cc(OCC)c3c(=O)c2OCC)c(OCC)c1 | 26.3
* COc1c(O)cc2oc(-c3ccc(O)cc3)cc(=O)c2c1O | 7.59

Data origin: BindingDB's records for doi:10.1021/jm970446z
